- Tested on: MES-SA (Other Solid Carcinomas)
- assay.protocol: combination Emax (second highest fraction inhibited in the dose matrix, 72 h); higher = more inhibition; extreme values may be limits of the assay
Quick reference for combination Emax among some compounds
Please reply with the value in numeric form only.

Data request: Observed combination Emax on MES-SA (Other Solid Carcinomas) for C=CCn1c(=O)c2cnc(Nc3ccc(N4CCN(C)CC4)cc3)nc2n1-c1cccc(C(C)(C)O)n1 [AZD1775] + C1CN(CCC1(C(=O)N[C@@H](CCO)C2=CC=C(C=C2)Cl)N)C3=NC=NC4=C3C=CN4 [Capivasertib] (first compound max 3 µM, partner max 3 µM) , please.
Data returned: 0.863

Could you now consider this next compound?
Data request: What measured combination Emax is associated with Cc1cc2ncnn2cc1Nc1ncc2c(n1)n(C1CCOCC1)c(=O)n2C [AZD7648] + CN(C)CCCOc1ccc(-c2ccc3ncc4c(c3c2)n(C2CCOCC2)c(=O)n4C)cn1 [AZD0156] (first compound max 10 µM, 7x7, partner max 1 µM) on MES-SA (Other Solid Carcinomas)?
Data returned: 0.475

====

- System: SLVL (B-Cell Non-Hodgkin's Lymphoma)
- assay.protocol: combination Emax (second highest fraction inhibited in the dose matrix, 72 h); higher = more inhibition; extreme values may be limits of the assay
Measured combination Emax, listed per entry for reference.
// print number alone

Data request: Which combination Emax value is on record for NC1(C(=O)N[C@@H](CCO)c2ccc(Cl)cc2)CCN(c2ncnc3[nH]ccc23)CC1 [Capivasertib] + CCN(CCO)CCCOc1ccc2c(Nc3cc(CC(=O)Nc4cccc(F)c4)[nH]n3)ncnc2c1 [AZD2811] (first compound max 10 µM, 7x7, partner max 1 µM) ?
Data returned: 0.667

Data request: Moving on to CC(=O)c1c(C)c2cnc(Nc3ccc(N4CCNCC4)cn3)nc2n(C2CCCC2)c1=O [Palbociclib] + Cn1cnc2c(F)c(Nc3ccc(Br)cc3Cl)c(C(=O)NOCCO)cc21 [Selumetinib] (first compound max 10 µM, 7x7, partner max 10 µM)
Data returned: 0.593

Data request: Quick one: Cc1c2c(nn1C)CSCc1cc(n(C)n1)CSc1cc(c3ccccc3c1)OCCCc1c(C(=O)O)n(C)c3c-2c(Cl)ccc13 [AZD5991] + Cc1cc2ncnn2cc1Nc1ncc2c(n1)n(C1CCOCC1)c(=O)n2C [AZD7648] (first compound max 1 µM, 7x7, partner max 10 µM)
Data returned: 0.487

Data request: And for CN(CCO)CC[C@H](CSc1ccccc1)Nc1ccc(S(=O)(=O)NC(=O)c2ccc(N3CCC([C@@H](O)c4ccccc4-c4ccc(Cl)cc4)CC3)cc2)cc1S(=O)(=O)C(F)(F)F [AZD4320] + C[C@@H]1COCCN1C2=NC(=NC(=C2)C3(CC3)[S@](=N)(=O)C)C4=C5C=CNC5=NC=C4 [AZD6738] (first compound max 1 µM, 7x7, partner max 10 µM) ?
Data returned: 0.94

====

- Tested on: NCI-H1688 (Small Cell Lung Carcinoma)
- assay.protocol: Bliss excess, mean over the matrix (fraction); higher = more synergy
Let's look at some compounds and their measured Bliss excess.
Give your answer as a number; write no unit.

Reference set, count: 3
Data request: API: value(readout=Bliss excess, system=NCI-H1688 (Small Cell Lung Carcinoma)) for record CC(=O)Nc1cccc(-n2c(=O)n(C3CC3)c(=O)c3c(Nc4ccc(I)cc4F)n(C)c(=O)c(C)c32)c1 [Trametinib] + Cc1nc(-c2cn3c(n2)-c2ccc(-c4cnn(C(C)(C)C(N)=O)c4)cc2OCC3)n(C(C)C)n1 [Taselisib] (first compound max 1 µM, 7x7, partner max 10 µM)
Data returned: 0.127

Data request: Could you do the same for COc1cccc2c1C(=O)c1c(O)c3c(c(O)c1C2=O)C[C@@](O)(C(=O)CO)C[C@@H]3O[C@H]1C[C@H](N)[C@H](O)[C@H](C)O1 [Doxorubicin] + Cc1cc2ncnn2cc1Nc1ncc2c(n1)n(C1CCOCC1)c(=O)n2C [AZD7648] (first compound max 1 µM, 7x7, partner max 10 µM) , please?
Data returned: 0.0172

Data request: Check COc1nnc2ccc(N3CCC(c4ccc(OCCN5CCN(C)C(=O)[C@H]5C)cc4)CC3)nn12 [AZD5153] + CCN(CCO)CCCOc1ccc2c(Nc3cc(CC(=O)Nc4cccc(F)c4)[nH]n3)ncnc2c1 [AZD2811] (first compound max 1 µM, 7x7, partner max 1 µM) too.
Data returned: 0.0116

Please examine the following record next.
Data request: GET /values?readout=Bliss excess&system=NCI-H1688 (Small Cell Lung Carcinoma)&item= COc1cccc(OCCCN)c1-c1cc(Nc2cnc(C#N)cn2)n[nH]1 [Prexasertib] + O=C(c1cc(Cc2n[nH]c(=O)c3ccccc23)ccc1F)N1CCN(C(=O)C2CC2)CC1 [Olaparib] (first compound max 1 µM, 7x7, partner max 10 µM)
Data returned: -0.0135

====

- Tested on: D-392MG (Glioblastoma)
- assay.protocol: Bliss excess, mean over the matrix (fraction); higher = more synergy
Returns one of rule met or rule not met; rule met when Bliss excess is >= -0.04.

Worked set:
Data request: Test whether the compound Cc1cc2ncnn2cc1Nc1ncc2c(n1)n(C1CCOCC1)c(=O)n2C [AZD7648] + COc1cc([C@@H]2c3cc4c(cc3[C@@H](O[C@@H]3O[C@@H]5CO[C@@H](C)O[C@H]5[C@H](O)[C@H]3O)[C@H]3COC(=O)[C@H]23)OCO4)cc(OC)c1O [Etoposide] (first compound max 10 µM, 7x7, partner max 10 µM) records Bliss excess of -0.04 or higher.
Data returned: rule met

Data request: Now consider Cc1nc(Nc2ncc(C(=O)Nc3c(C)cccc3Cl)s2)cc(N2CCN(CCO)CC2)n1 [Dasatinib] + CC(=O)Nc1cccc(-n2c(=O)n(C3CC3)c(=O)c3c(Nc4ccc(I)cc4F)n(C)c(=O)c(C)c32)c1 [Trametinib] (first compound max 2 µM, 7x7, partner max 1 µM) .
Data returned: rule met

Data request: Would you mind doing CC(=O)c1c(C)c2cnc(Nc3ccc(N4CCNCC4)cn3)nc2n(C2CCCC2)c1=O [Palbociclib] + Cn1cnc2c(F)c(Nc3ccc(Br)cc3Cl)c(C(=O)NOCCO)cc21 [Selumetinib] (first compound max 10 µM, 7x7, partner max 10 µM) as well?
Data returned: rule not met

Data request: Same question for CC(=O)c1c(C)c2cnc(Nc3ccc(N4CCNCC4)cn3)nc2n(C2CCCC2)c1=O [Palbociclib] + Cc1c2c(nn1C)CSCc1cc(n(C)n1)CSc1cc(c3ccccc3c1)OCCCc1c(C(=O)O)n(C)c3c-2c(Cl)ccc13 [AZD5991] (first compound max 10 µM, 7x7, partner max 1 µM) please.
Data returned: rule met

Data request: Query CN(CCO)CC[C@H](CSc1ccccc1)Nc1ccc(S(=O)(=O)NC(=O)c2ccc(N3CCC([C@@H](O)c4ccccc4-c4ccc(Cl)cc4)CC3)cc2)cc1S(=O)(=O)C(F)(F)F [AZD4320] + C1CN(CCC1(C(=O)N[C@@H](CCO)C2=CC=C(C=C2)Cl)N)C3=NC=NC4=C3C=CN4 [Capivasertib] (first compound max 1 µM, 7x7, partner max 3 µM) next
Data returned: rule not met

Read the next record carefully.
Data request: Does CS(=O)(=O)CCNCc1ccc(-c2ccc3ncnc(Nc4ccc(OCc5cccc(F)c5)c(Cl)c4)c3c2)o1 [Lapatinib] + C[C@@H](Oc1cc(-c2cnn(C3CCNCC3)c2)cnc1N)c1c(Cl)ccc(F)c1Cl [Crizotinib] (first compound max 10 µM, 7x7, partner max 10 µM) have a reported Bliss excess of at least -0.04?
Data returned: rule not met

====

This section presents compounds with their documented combination Emax values.
- System: 647-V (Bladder Carcinoma)
- assay.protocol: combination Emax (second highest fraction inhibited in the dose matrix, 72 h); higher = more inhibition; extreme values may be limits of the assay
# print the numeric value only

The examples below pair each entry with its known result.
Data request: Name the recorded combination Emax for Cc1cc2ncnn2cc1Nc1ncc2c(n1)n(C1CCOCC1)c(=O)n2C [AZD7648] + C=CCn1c(=O)c2cnc(Nc3ccc(N4CCN(C)CC4)cc3)nc2n1-c1cccc(C(C)(C)O)n1 [AZD1775] (first compound max 10 µM, partner max 1 µM) .
Data returned: 0.52

Data request: Input COc1nnc2ccc(N3CCC(c4ccc(OCCN5CCN(C)C(=O)[C@H]5C)cc4)CC3)nn12 [AZD5153] + CN(CC[C@H](CSC1=CC=CC=C1)NC2=C(C=C(C=C2)S(=O)(=O)NC(=O)C3=CC=C(C=C3)N4CCC(CC4)[C@H](C5=CC=CC=C5C6=CC=C(C=C6)Cl)O)S(=O)(=O)C(F)(F)F)CCO [AZD4320] (first compound max 1 µM, 7x7, partner max 1 µM)
Data returned: 0.513

New cases:
Data request: Name the recorded combination Emax for COc1nnc2ccc(N3CCC(c4ccc(OCCN5CCN(C)C(=O)[C@H]5C)cc4)CC3)nn12 [AZD5153] + C[C@@H]1COCCN1C2=NC(=NC(=C2)C3(CC3)[S@](=N)(=O)C)C4=C5C=CNC5=NC=C4 [AZD6738] (first compound max 1 µM, 7x7, partner max 10 µM) .
Data returned: 0.789

Data request: Now consider Cc1c2c(nn1C)CSCc1cc(n(C)n1)CSc1cc(c3ccccc3c1)OCCCc1c(C(=O)O)n(C)c3c-2c(Cl)ccc13 [AZD5991] + Cc1cc2ncnn2cc1Nc1ncc2c(n1)n(C1CCOCC1)c(=O)n2C [AZD7648] (first compound max 1 µM, 7x7, partner max 10 µM) .
Data returned: 0.719

Data request: Also need COc1nnc2ccc(N3CCC(c4ccc(OCCN5CCN(C)C(=O)[C@H]5C)cc4)CC3)nn12 [AZD5153] + CC1(C)CCC(CN2CCN(c3ccc(C(=O)NS(=O)(=O)c4ccc(NCC5CCOCC5)c([N+](=O)[O-])c4)c(Oc4cnc5[nH]ccc5c4)c3)CC2)=C(c2ccc(Cl)cc2)C1 [Venetoclax] (first compound max 1 µM, 7x7, partner max 1 µM) , thanks.
Data returned: 0.463

Data request: Here is the next compound: CN(CCO)CC[C@H](CSc1ccccc1)Nc1ccc(S(=O)(=O)NC(=O)c2ccc(N3CCC([C@@H](O)c4ccccc4-c4ccc(Cl)cc4)CC3)cc2)cc1S(=O)(=O)C(F)(F)F [AZD4320] + C[C@@H](Nc1cc(F)cc(F)c1)c1cc(C(=O)N(C)C)cc2c(=O)cc(N3CCOCC3)oc12 [AZD8186] (first compound max 1 µM, 7x7, partner max 3 µM)
Data returned: 0.989

Data request: CS(=O)(=O)CCNCc1ccc(-c2ccc3ncnc(Nc4ccc(OCc5cccc(F)c5)c(Cl)c4)c3c2)o1 [Lapatinib] + C[C@@H](Oc1cc(-c2cnn(C3CCNCC3)c2)cnc1N)c1c(Cl)ccc(F)c1Cl [Crizotinib] (first compound max 10 µM, 7x7, partner max 10 µM) ?
Data returned: 0.906
